# MEASURED_ON: human endothelin-B (ETB) receptors (Homo sapiens)
# Construct: made in house; host or cells: Sf9 insect cells (membrane fractions)
# Sequence (P24530 27-442): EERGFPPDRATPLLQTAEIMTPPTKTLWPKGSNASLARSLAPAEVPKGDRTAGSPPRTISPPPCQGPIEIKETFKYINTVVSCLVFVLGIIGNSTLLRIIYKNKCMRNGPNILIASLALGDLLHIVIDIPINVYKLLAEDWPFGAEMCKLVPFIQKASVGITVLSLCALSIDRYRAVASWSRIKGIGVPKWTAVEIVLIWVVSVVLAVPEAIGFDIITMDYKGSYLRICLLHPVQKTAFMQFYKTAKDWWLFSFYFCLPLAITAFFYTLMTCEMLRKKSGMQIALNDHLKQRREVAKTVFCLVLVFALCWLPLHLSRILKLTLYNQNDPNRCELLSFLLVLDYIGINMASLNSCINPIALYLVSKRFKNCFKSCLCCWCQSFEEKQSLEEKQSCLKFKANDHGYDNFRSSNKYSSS
# ASSAY_TEXT: Binding Test to ETB receptor expressed in an insect cell Sf9 ([125I]endothelin-1 displacement)
# EXPERIMENTAL_CONTEXT: Table 6; values recur in Table 8; read-out: Binding IC50 (µM) ETB
ASSAY_METRIC: IC50 (µM)

>>> quantitative_readout("COCOc1ccc(-c2sc3c(c2CNS(C)(=O)=O)c(=O)n(CC(=O)O)c(=O)n3Cc2ccccc2SC)cc1 [Example 5]")
0.1
>>> quantitative_readout("CCS(=O)(=O)NCc1c(-c2ccc(OCOC)cc2)sc2c1c(=O)n(CC(=O)O)c(=O)n2Cc1ccccc1SC [11(16)]")
0.054

----------
Catalogue of IC50 values
# MEASURED_ON: human endothelin-A (ETA) receptors (Homo sapiens)
# Construct: made in house; host or cells: Sf9 insect cells (membrane fractions)
# Sequence (P25101 21-427): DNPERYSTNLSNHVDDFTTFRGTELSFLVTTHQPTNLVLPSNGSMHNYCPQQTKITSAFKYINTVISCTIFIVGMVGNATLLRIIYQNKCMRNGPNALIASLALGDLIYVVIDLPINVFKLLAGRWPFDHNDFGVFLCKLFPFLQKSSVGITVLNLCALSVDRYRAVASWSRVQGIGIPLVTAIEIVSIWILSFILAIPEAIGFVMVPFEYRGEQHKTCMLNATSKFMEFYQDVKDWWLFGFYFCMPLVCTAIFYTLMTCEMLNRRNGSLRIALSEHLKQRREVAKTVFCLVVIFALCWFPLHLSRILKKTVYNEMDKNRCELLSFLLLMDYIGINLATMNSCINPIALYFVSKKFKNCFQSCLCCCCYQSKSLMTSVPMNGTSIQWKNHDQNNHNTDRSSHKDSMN
# ASSAY_TEXT: Binding Test to ETA receptor expressed in an insect cell Sf9 ([125I]endothelin-1 displacement)
# EXPERIMENTAL_CONTEXT: Sf9 membrane fractions; [125I]endothelin-1; 25°C, 60 minutes; concentration causing PMB=50%; read-out: IC50 value: µM Human endotherin-A receptor
ASSAY_METRIC: IC50 (µM)

>>> quantitative_readout("CCCOc1ccc(-c2sc3c(c2CNS(C)(=O)=O)c(=O)n(CC(=O)O)c(=O)n3Cc2ccccc2SC)cc1")
0.018
>>> quantitative_readout("CCCOc1ccc(-c2sc3c(c2CNS(=O)(=O)C(C)C)c(=O)n(CC(=O)O)c(=O)n3Cc2ccccc2SC)cc1")
0.011
>>> quantitative_readout("CCCS(=O)(=O)NCc1c(-c2ccc(OCOC)cc2)sc2c1c(=O)n(CC(=O)O)c(=O)n2Cc1ccccc1SC")
0.022

----------
# MEASURED_ON: human endothelin-B (ETB) receptors (Homo sapiens)
# Construct: made in house; host or cells: Sf9 insect cells (membrane fractions)
# ASSAY_TEXT: Binding Test to ETB receptor expressed in an insect cell Sf9 ([125I]endothelin-1 displacement)
# EXPERIMENTAL_CONTEXT: Sf9 membrane fractions; [125I]endothelin-1; 25°C, 60 minutes; concentration causing PMB=50%; read-out: IC50 value: µM Human endotherin-B receptor
Mark t only for IC50 values smaller than 0.09 µM; exact matches and larger values are f.

>>> discrete_label("COCOc1ccc(-c2sc3c(c2CNS(C)(=O)=O)c(=O)n(CC(=O)O)c(=O)n3Cc2ccccc2SC)cc1")
"f"
>>> discrete_label("CCS(=O)(=O)NCc1c(-c2ccc(OCOC)cc2)sc2c1c(=O)n(CC(=O)O)c(=O)n2Cc1ccccc1SC")
"t"
>>> discrete_label("CCCS(=O)(=O)NCc1c(-c2ccc(OCOC)cc2)sc2c1c(=O)n(CC(=O)O)c(=O)n2Cc1ccccc1SC")
"t"
>>> discrete_label("CCCOc1ccc(-c2sc3c(c2CNS(C)(=O)=O)c(=O)n(CC(=O)O)c(=O)n3Cc2ccccc2SC)cc1")
"f"
>>> discrete_label("CCCOc1ccc(-c2sc3c(c2CNS(=O)(=O)CC)c(=O)n(CC(=O)O)c(=O)n3Cc2ccccc2SC)cc1")
"f"
>>> discrete_label("CCCOc1ccc(-c2sc3c(c2CNS(=O)(=O)C(C)C)c(=O)n(CC(=O)O)c(=O)n3Cc2ccccc2SC)cc1")
"f"
